Molecular target: α7nAChR (Aβ42-α7nAChR interaction)
Assay: Aβ42 affinity for α7nAChR in biotinylated synaptic membranes from postmortem frontal cortices
Type: binding, human
Conditions: read-out: Aβ42 binding affinity for α7nAChR after Compound C0105 incubation; postmortem control tissue
Readout kind: Kd (nM)
Reply numerically in nM, unit not repeated.

Item: CN1CCC2(CC1)NCC(=O)N2Cc1ccccc1 [Compound C0105] | System: α7nAChR (Aβ42-α7nAChR interaction) | Kd: 16

----------
Molecular target: mu opiate receptor (MOR) (Rattus norvegicus)
Construct: from tissue; host or cells: striatum (membrane preparation)
Sequence (P33535 whole entry): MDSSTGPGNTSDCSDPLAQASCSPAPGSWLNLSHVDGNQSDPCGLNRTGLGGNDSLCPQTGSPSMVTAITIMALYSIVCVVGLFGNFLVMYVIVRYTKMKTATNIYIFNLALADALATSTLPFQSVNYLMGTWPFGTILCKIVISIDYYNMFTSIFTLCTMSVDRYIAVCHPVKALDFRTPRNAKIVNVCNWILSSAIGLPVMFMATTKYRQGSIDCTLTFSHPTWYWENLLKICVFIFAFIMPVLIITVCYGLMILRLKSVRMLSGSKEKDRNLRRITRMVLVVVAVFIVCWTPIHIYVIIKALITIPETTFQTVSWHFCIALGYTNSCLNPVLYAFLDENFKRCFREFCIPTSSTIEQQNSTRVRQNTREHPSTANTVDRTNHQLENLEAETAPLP
Type: biochemical
Details: [35S]GTPγS binding to Gαo in striatal membranes; compound 1 μM plus 1 μM β-funaltrexamine (MOR antagonist)
Readout kind: Concentration of FLNA-Binding Compound as Agonist 1 μM + BFNA (%)
Reply numerically in %, unit not repeated.

# example entries with known answers
> print(dat)
                                   molecule  reading
1  COc1ccc(OCC(O)CN2CCc3ccccc3C2)cc1 (stereo not shown)     15.1
2  CC(=O)c1ccc(S(=O)(=O)N2CCC3(CC2)OCC(CCCCN(C)C)N3S(=O)(=O)c2ccc(C(C)=O)cc2)cc1 (stereo not shown) [Compound C0080M]    167.1
3  O=S(=O)(c1ccc(Br)cc1)N1CCC2(CC1)OCCN2S(=O)(=O)c1ccc(Br)cc1     80.2

Per the record, OC(COc1ccc(Br)c(F)c1)CN1CCc2ccccc2C1 (stereo not shown) has Concentration of FLNA-Binding Compound as Agonist 1 μM + BFNA of 44.8
